# Target entity: DRB1*07:01
# Conditions: modification not given
Metric name: IC50 (nM)
Reply with just the number (in nM).

## Task Which IC50 is reported for this binder? KKFLPFQQFGRDIAD [… (position 557)]
## Result 1630
